# Lookup of reported TGI keyed by entry
System: NCI-H23 lung
protocol details: NCI tumour cell line growth inhibition, 48 h

COc1cc2ncn(-c3cc(OCc4ccccc4S(C)(=O)=O)c(C#N)s3)c2cc1OC	> 25 µM
NC(=O)NCCSC1CCCCC1O (configuration not stated)	> 100 µM
COc1cc(CNc2nc3cc(C(F)(F)F)ccc3nc2C)cc(OC)c1OC	76.1 µM
N#C[C@H]1Nc2ccccc2[C@@H](O)C1O (some centres not stated)	> 100 µM
COc1nc2[nH]ccc2c(=O)n1C	> 100 µM
O=C(O)C1SCCS1	> 100 µM

Req: Data request, read-out TGI, for CCOC12SC(=Nc3ccc(C)cc3)NN1C(=S)N(C)N=C2C (configuration not stated)
Resp: > 100 µM

Req: Data request, read-out TGI, for CC(=O)NC1=C(NCc2ccc(Cl)cc2)C(=O)c2ccccc2C1=O
Resp: 13.5 µM

Req: Data request, read-out TGI, for Clc1ncnc2c1ncn2CCCCCCCCCCCCn1cnc2c(Cl)ncnc21
Resp: 10.8 µM

----------
# Lookup of reported TGI keyed by entry
Tested on: EKVX NSCLC
protocol details: NCI tumour cell line growth inhibition, 48 h

See these solved cases before continuing.
CCOC(=O)C1=C(c2ccccc2)N(c2ccc(OC)cc2)[C@]2(C#N)C(O)=C(Cl)C(Cl)=C(O)[C@]12C#N	> 100 µM
N#Cc1c(N2CCN(c3ccc([N+](=O)[O-])cc3)CC2)[n+](=O)c2ccc(Cl)cc2n1[O-]	10.8 µM
Cc1ccc(/C(=C/C=C(C#N)C#N)Sc2ccccn2)cc1	31.1 µM
Cc1cc2c(cc1Br)C1(C)CCC(C)C1(C)O2 (stereo not drawn)	> 100 µM
COc1cc2c3c(n(CCCNCCNCCCN)c(=O)c2cc1OC)-c1cc2c(cc1C3=O)OCO2	69.9 µM
Clc1cc(Cl)cc(Nc2nc3ccccc3nc2-c2cccs2)c1	> 100 µM
NC(=O)c1c2c(cc3c(=O)c4ccccc4[nH]c13)CCCC2	> 100 µM
COc1cc(/C=C2\C(=O)Nc3ccccc32)cc(OC)c1OC	> 100 µM

Note: attention shifts to another entry.
Req: Data request, read-out TGI, for COC(=O)c1ccccc1CC(Cc1ccccc1)C(=O)OC (stereo not drawn)
Resp: > 100 µM

----------
# Lookup of reported TGI keyed by entry
System: ACHN renal
protocol details: NCI tumour cell line growth inhibition, 48 h
Express your answer in µM, writing the number without its unit.

See these solved cases before continuing.
COc1ccc2c(c1)CC[C@@H]1[C@@H]2CC[C@]2(C)C(=O)/C(=C/c3cc(OC)c(OC)c(OC)c3)C[C@@H]12	40.7
COc1ccc(C2=CN3CCC[C@H]3C=C2c2cc(O)c(OC)c(OC)c2)cc1OC	0.0959

Req: Data request, read-out TGI, for O=C1C=CC(=O)c2c1ncc1c2nc2sccn21
Resp: 39.6

Req: Data request, read-out TGI, for CCC(C)C1(O)OC2CC3(C)OC(=CC3=O)/C(C)=C\C3OC(=O)C1(C)C32 (configuration not stated)
Resp: 23.5

----------
Tested on: SF-539 CNS
protocol details: NCI tumour cell line growth inhibition, 48 h
# Lookup of reported TGI keyed by entry

Req: Data request, read-out TGI, for CC(=O)NC1=C(NCc2ccc(Cl)cc2)C(=O)c2ccccc2C1=O
Resp: 10.5 µM

Req: Data request, read-out TGI, for Oc1ccc(CN(Cc2ccc(C(F)(F)F)cc2)Cc2ccc(O)c3ncccc23)c2cccnc12
Resp: > 64.1 µM

Req: Data request, read-out TGI, for COc1ccc(/C=N/n2c(Cc3ccc(Cl)cc3)n[nH]c2=O)c(OC)c1
Resp: > 100 µM

----------
Test system: U251 CNS
protocol details: NCI tumour cell line growth inhibition, 48 h
# Lookup of reported TGI keyed by entry

CN(C)CCNC(=O)c1nc([N+](=O)[O-])cn1C	> 100 µM
CCCCCCN1CCN(Cc2ccc(N(CC)CC)cc2)C(=O)C1=O	62.3 µM
O=c1[nH]c2ccccc2c2oc(-c3ccccc3)nc12	60.8 µM
CN(C)CCn1c(=O)c2ccc3c4c(nn3CCN(C)C)c3ccccc3n(c1=O)c24	1.43 µM
c1ccc(Nc2nnc(-c3nsc4ccccc34)o2)cc1	> 100 µM
CNC(=O)OCc1[nH]ccc2c(C)c3nc4ccc(OC)cc4c3cc12	> 59.5 µM

Req: Data request, read-out TGI, for O=C(/C=C/c1ccccc1O)/C=C/c1ccccc1O
Resp: 2.89 µM

Req: Data request, read-out TGI, for COc1ccc(/C=N/n2c(Cc3ccc(Cl)cc3)n[nH]c2=O)c(OC)c1
Resp: > 100 µM

Req: Data request, read-out TGI, for O=[N+]([O-])c1ccc(N=Nc2c(O)[nH]c3ccccc23)cc1
Resp: > 100 µM

Req: Data request, read-out TGI, for CCC[CH2][Sn]1([CH2]CCC)[O]C(=O)CN=Cc2ccccc2[O]1
Resp: 1.09 µM

Req: Data request, read-out TGI, for CCOC(=O)/C(=C\c1ccc(F)cc1)C(C)=O
Resp: 40.7 µM

Req: Data request, read-out TGI, for CN1CCCCC(C(O)(c2ccccc2)c2ccccc2)C1=O (stereo unspecified)
Resp: > 100 µM

Req: Data request, read-out TGI, for O=C1C[C@H](c2ccccc2)C2(C(=O)c3ccccc3C2=O)[C@H](c2ccccc2)C1
Resp: > 100 µM

Req: Data request, read-out TGI, for CC1(C)N[P+]2(Nc3ccccc3O2)OC1=O (stereo unspecified)
Resp: > 100 µM

Req: Data request, read-out TGI, for Cc1n(CC(=O)c2ccccc2)nc2sc(N)n[n+]12
Resp: > 100 µM

Req: Data request, read-out TGI, for Cc1cc(N=C2C=C(Nc3cc(C)on3)C(=O)c3ccccc32)no1
Resp: > 95.1 µM

Req: Data request, read-out TGI, for O=C1/C(=C/c2ccco2)NC(=S)N1CN1CCOCC1
Resp: > 100 µM

----------
# Lookup of reported TGI keyed by entry
Tested on: MCF7 breast
protocol details: NCI tumour cell line growth inhibition, 48 h

See these solved cases before continuing.
COc1ccc(-c2nc3sc4c(c3c(=O)[nH]2)CCCC4)c2ccccc12	> 100 µM
CCOC(=O)C(NCc1cccc(C(F)(F)F)c1)(NC(=O)c1ccccc1)C(F)(F)F (centres undefined)	> 100 µM
N#Cc1nc(/C=C/c2ccccc2)oc1N	> 100 µM

Note: attention shifts to another entry.
Req: Data request, read-out TGI, for N#Cc1c(N2CCN(c3ccc([N+](=O)[O-])cc3)CC2)[n+](=O)c2ccc(Cl)cc2n1[O-]
Resp: > 33.3 µM

----------
Tested on: HL-60(TB) leukemia
protocol details: NCI tumour cell line growth inhibition, 48 h
recorded endpoint: TGI

See these solved cases before continuing.
COc1ccc(-c2cc(-c3nnc(SCC(=O)Nc4ccc(C(C)=O)cc4)o3)c3ccccc3n2)cc1	> 100 µM
O=C(Nc1cccc(-n2ccc3c(NC(=O)c4ccccc4)nccc32)c1)c1cc(N2CCOCC2)cc(C(F)(F)F)c1	> 100 µM

Req: Data request, read-out TGI, for CCS(=O)(=O)c1c2cc(OC)ccc2nc2ccc(OC)cc12
Resp: > 100 µM

Req: Data request, read-out TGI, for Cc1ccccc1C(C(=O)NC1CCCCC1)N(C(=O)Cn1ccnc1C)c1cccc(F)c1 (stereo not given)
Resp: > 100 µM

Req: Data request, read-out TGI, for COC(=O)[C@@H]1CCCN1C(=O)[C@H]1CCCN1C(=O)[C@@H](Cc1c[nH]c2ccccc12)NC(=S)Nc1cc(C(F)(F)F)cc(C(F)(F)F)c1
Resp: 6.35 µM

Req: Data request, read-out TGI, for COC(=O)CCN(CCC(=O)OC)C1CC1
Resp: > 100 µM

Req: Data request, read-out TGI, for O=CN1CCN(C=S)CC1
Resp: > 100 µM

Req: Data request, read-out TGI, for COc1ccc2[nH]cc(-c3nc(-c4c[nH]c5ccncc45)cs3)c2c1
Resp: 3.47 µM

Req: Data request, read-out TGI, for C=CCN(CC=C)CC(C(C)=O)C(c1ccccc1)c1c(O)c2ccccc2oc1=O (stereo not given)
Resp: > 100 µM

Req: Data request, read-out TGI, for NC1=NC(c2ccc(F)cc2)C2=C(N1)c1ccc3ccccc3c1OCC2 (stereo not given)
Resp: > 100 µM

----------
Tested on: DU-145 prostate
protocol details: NCI tumour cell line growth inhibition, 48 h
# Lookup of reported TGI keyed by entry

See these solved cases before continuing.
COc1ccc2c(c1)-c1oc3ccccc3c(=O)c1CO2	> 100 µM
O=C(OCc1ccccc1)N1c2cc([N+](=O)[O-])ccc2C(=O)N2CCC[C@H]2C1O (stereo partly drawn)	> 100 µM

Req: Data request, read-out TGI, for O=C1/C(=C/c2ccco2)NC(=S)N1CN1CCOCC1
Resp: > 100 µM

Data credit: PubChem BioAssay (NCI)
